The entries below are paired with their reported pKd.
tested on: T1, CD123-Fc (Sino Biological) (human, UniProt P26951 19-305)
T1 construct: Bought reagent; not shown: Fc of the bought fusion (detected with anti-human Fc, captured on AHC sensor)
T1 sequence: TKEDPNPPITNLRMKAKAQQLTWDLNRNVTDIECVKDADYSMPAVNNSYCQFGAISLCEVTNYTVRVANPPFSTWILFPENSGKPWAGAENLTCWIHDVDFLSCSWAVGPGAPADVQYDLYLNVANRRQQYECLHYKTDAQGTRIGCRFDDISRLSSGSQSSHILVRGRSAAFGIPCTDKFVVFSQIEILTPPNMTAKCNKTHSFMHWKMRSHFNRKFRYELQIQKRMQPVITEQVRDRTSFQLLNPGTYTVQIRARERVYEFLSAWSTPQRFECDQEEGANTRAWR
assay notes: BLI (Octet), CD123-Fc captured on AHC sensor, Adapter 500-0.69 nM in solution, global 1:1 fit, 25 C
// pKd is dimensionless: -log10 of concentration (M)

Worked examples, 4 binders total:
[
  {
    "binder": "Adapter protein comprising the 0C8S D domain and a P26(Q26-V229) AFP polypeptide (designed binder, also called 0085; 6T1D(G8S, K48E, N50S, I59L); not shown: His tag (purified on Ni-Sepharose)) MGSWDEFSRRLYAIEWQLYALGGTEAELAAFEKEIAAFESELQAYKGEGSPEVEKLRELAAVIRENLQAYRHNQESQALAKRSCGLFQKLGEYYLQNAFLVAYTKKAPQLTSSELMAITRKMAATAATCCQLSEDKLLACGEGAADIIIGHLCIRHEMTPVNPGVGQCCTSSYANRRPCFSSLVVDETYVPPAFSDDKFIFHKDLCQAQGVALQTMKQEFLINLVKQKPQITEEQLEAVIADFSGLLEKCCQGQEQEVCFAEEGQKLISKTRAALGV",
    "pKd": 9.00
  },
  {
    "binder": "Adapter protein comprising the 8O3S D domain and a P26(Q26-V229) AFP polypeptide (designed binder, also called 6T1D(W16T); not shown: His tag (purified on Ni-Sepharose)) MGSWDEFGRRLYAIETQLYALGGTEAELAAFEKEIAAFESELQAYKGKGNPEVEKLREIAAVIRENLQAYRHNQESQALAKRSCGLFQKLGEYYLQNAFLVAYTKKAPQLTSSELMAITRKMAATAATCCQLSEDKLLACGEGAADIIIGHLCIRHEMTPVNPGVGQCCTSSYANRRPCFSSLVVDETYVPPAFSDDKFIFHKDLCQAQGVALQTMKQEFLINLVKQKPQITEEQLEAVIADFSGLLEKCCQGQEQEVCFAEEGQKLISKTRAALGV",
    "pKd": 7.55
  },
  {
    "binder": "Adapter protein comprising the 3F4N D domain and a P26(Q26-V229) AFP polypeptide (designed binder, also called 6T1D(N50S); not shown: His tag (purified on Ni-Sepharose)) MGSWDEFGRRLYAIEWQLYALGGTEAELAAFEKEIAAFESELQAYKGKGSPEVEKLREIAAVIRENLQAYRHNQESQALAKRSCGLFQKLGEYYLQNAFLVAYTKKAPQLTSSELMAITRKMAATAATCCQLSEDKLLACGEGAADIIIGHLCIRHEMTPVNPGVGQCCTSSYANRRPCFSSLVVDETYVPPAFSDDKFIFHKDLCQAQGVALQTMKQEFLINLVKQKPQITEEQLEAVIADFSGLLEKCCQGQEQEVCFAEEGQKLISKTRAALGV",
    "pKd": 8.89
  },
  {
    "binder": "Adapter protein comprising the 4I0K D domain and a P26(Q26-V229) AFP polypeptide (designed binder, also called 6T1D(W16S); not shown: His tag (purified on Ni-Sepharose)) MGSWDEFGRRLYAIESQLYALGGTEAELAAFEKEIAAFESELQAYKGKGNPEVEKLREIAAVIRENLQAYRHNQESQALAKRSCGLFQKLGEYYLQNAFLVAYTKKAPQLTSSELMAITRKMAATAATCCQLSEDKLLACGEGAADIIIGHLCIRHEMTPVNPGVGQCCTSSYANRRPCFSSLVVDETYVPPAFSDDKFIFHKDLCQAQGVALQTMKQEFLINLVKQKPQITEEQLEAVIADFSGLLEKCCQGQEQEVCFAEEGQKLISKTRAALGV",
    "pKd": 7.85
  }
]

Now turn to the next binder.
[ask] Would you mind telling me what pKd value was observed for Adapter protein comprising the 6K4C D domain and a P26(Q26-V229) AFP polypeptide (designed binder, also called 6T1D(D5A); not shown: His tag (purified on Ni-Sepharose)) MGSWAEFGRRLYAIEWQLYALGGTEAELAAFEKEIAAFESELQAYKGKGNPEVEKLREIAAVIRENLQAYRHNQESQALAKRSCGLFQKLGEYYLQNAFLVAYTKKAPQLTSSELMAITRKMAATAATCCQLSEDKLLACGEGAADIIIGHLCIRHEMTPVNPGVGQCCTSSYANRRPCFSSLVVDETYVPPAFSDDKFIFHKDLCQAQGVALQTMKQEFLINLVKQKPQITEEQLEAVIADFSGLLEKCCQGQEQEVCFAEEGQKLISKTRAALGV ?
[reply] 7.74

Reference source: patent US20240124605A1
